Test system: OVCAR-8 ovarian
Assay: NCI-60 one-dose screen, 48 h (100 = growth as untreated, 0 = no growth, -100 = all killed)
Settings: 10 µM unless noted
Compounds without any hit were thinned out: in the full panel of roughly 83,000, 20% have a hit. Active and inactive are the calls of the source. Rule for the calls: active = growth percent below 10; inactive = the rest.
We begin with a simple list: items and their reported growth.

CCOc1c(OC)cc2c(c1O)C(=O)N[C@@H]1[C@@H](O)[C@@H](O)[C@H](O)C[C@@H]21; 101% (inactive)
O=C1/C(=C\c2cccc3nccnc23)SC(=S)N1CCc1ccc(O)cc1; 99.1% (inactive)

growth reported for this compound O=C(CN1CCCCCC1)Nc1nc2ccc(NCc3ccc(Cl)cc3)cc2s1 : 95.3% (inactive)

growth reported for this compound CCNC(=O)Oc1ccc(/C(=C(/CC)Cc2ccccc2)c2ccc(OCCN3CCCC3)cc2)cc1 : 94.1% (inactive)

growth reported for this compound CCn1c(-c2cc3c([nH]c4ccccc43)c(-c3cccc(O)c3)n2)n[nH]c1=S : 40.8% (inactive)
